Test: UV-vis absorption spectra and molar absorptivity coefficient
Assay type: physicochemical
Settings: 20 μM; solvent per compound: IM1, IM3, IM4, IM5 CH2Cl2; IM2 DMSO; IM6 CH3OH; IM7 hexane
Kindly state εAbs (molar absorptivity coefficient) for each of the entries shown.

Some molecules with known εAbs (molar absorptivity coefficient) results, for comparison:
SMILES	MEASUREMENT
CC1(C)CCc2c(c3ccccc3c3nc(-c4ccccc4)[nH]c23)O1	2.43 10^4 M^−1cm^−1
CC1(C)CCc2c(c3ccccc3c3nc(-c4cccc5ccccc45)[nH]c23)O1	1.57 10^4 M^−1cm^−1
CC1(C)CCc2c(c3ccccc3c3nc(-c4ccc(O)cc4)[nH]c23)O1	1.48 10^4 M^−1cm^−1
CC1(C)CCc2c(c3ccccc3c3nc(-c4ccccc4[N+](=O)[O-])[nH]c23)O1	1.35 10^4 M^−1cm^−1
CC1(C)CCc2c(c3ccccc3c3nc[nH]c23)O1	0.61 10^4 M^−1cm^−1

// for each molecule below, give its εAbs (molar absorptivity coefficient)
1. CC1(C)CCc2c(c3ccccc3c3nc(-c4ccc([N+](=O)[O-])cc4)[nH]c23)O1
2. CN(C)c1ccc(-c2nc3c([nH]2)c2c(c4ccccc43)OC(C)(C)CC2)cc1

Return:
["1.85 10^4 M^−1cm^−1", "2.71 10^4 M^−1cm^−1"]
